Here the recorded GI50 is given for each entry.
Tested on: EKVX NSCLC
assay remarks: NCI tumour cell line growth inhibition, 48 h

Form: molecule = `Cc1cc(Nc2ncnc3ccc(NC4=NC(C)(C)CO4)cc23)ccc1Oc1ccn2ncnc2c1` ; GI50 = 5.02 µM

Form: molecule = `Cc1ccnc2[nH]c(-c3ccccc3)cc(=O)c12` ; GI50 = > 100 µM

Form: molecule = `O=C(O)c1cc2cc(OCc3ccccc3)c(OCc3ccccc3)cc2[nH]1` ; GI50 = 17.8 µM

Form: molecule = O=C(O)c1ccc(N/C=C2\C(=O)c3ccccc3OC2O)cc1O (stereo unspecified) ; GI50 = 23.9 µg/mL

Form: molecule = `Cc1c(C)[n+](=O)c(C)c(C)n1[O-]` ; GI50 = > 100 µM

Form: molecule = S=C1Nc2ccc(Cl)cc2C2(c3ccccc3)N3CCN=C3NN12 (stereo unspecified) ; GI50 = 55.7 µM

* * *

Tested on: HOP-18 NSCLC
assay remarks: NCI tumour cell line growth inhibition, 48 h
Here the recorded TGI is given for each entry.
Give the value, in units of µM, as a plain number.

Previously resolved entries follow.
- molecule: "c1ccc2c(c1)[nH]c1cnc3c4cccnc4[nH]c3c12"
  observed result: 36.7
- molecule: "CC(C)(C)C(=O)ON1N=NC2C3CC(OCc4ccccc4)(OCc4ccccc4)C(O3)C21 (stereo not drawn)"
  observed result: 94.2
- molecule: "C=C1C(=O)OCC2C(C(=O)O)=CC3C(C)C(C)=CC123 (stereo not drawn)"
  observed result: 34.2

Alright, here's another molecule for you.
Form: molecule = COc1cc2c[n+](C)c3c4ccccc4ccc3c2cc1OC (tested in a mixture with another compound) ; TGI = 76.8

* * *

Test system: SF-268 CNS
assay remarks: NCI tumour cell line growth inhibition, 48 h
Here the recorded TGI is given for each entry.

- molecule: "O=c1cc(-c2ccccc2)[nH]n1-c1nc2ccccc2[nH]1"
  TGI: "> 100 µM"
- molecule: "O=C(Cc1cccc(OC(F)(F)F)c1)Nc1ccc(CCCCc2nnc(NC(=O)Cc3ccccn3)s2)nn1"
  TGI: "39.1 µM"
- molecule: "COC(OC)C1OC(CO)C(n2ccc(N)nc2=O)C1O (centres undefined)"
  TGI: "> 100 µM"
- molecule: "NS(=O)(=O)c1cccc(N=Cc2c(O)[nH]c3ccccc23)c1"
  TGI: "> 25 µM"
- molecule: "O=[Se](=O)c1ccccc1.O=[Se](=O)c1ccccc1.[Cu]"
  TGI: "33.1 µM"
- molecule: "O=C(Nc1ccccc1O)c1ccc(Oc2cccc(C(=O)Nc3ccccc3O)c2)cc1"
  TGI: "15 µM"
- molecule: "C=C(C)C(=O)[C@@]12C(=O)[C@@H](C)CC[C@H]1[C@H](C)C[C@@H]2C=C(C)C"
  TGI: "36 µM"
- molecule: "CN(C)CCSC(=Nc1ccccc1)N1CCCCC1"
  TGI: "38.8 µM"

Form: molecule = CC(=O)OC1CC2(O)C3CCC4CC(O)CCC4(C)C3CCC2(C)C1C1=CC(=O)OC1 (centres undefined) ; TGI = 0.15 µM

Form: molecule = `COc1ccccc1C#Cc1ccccc1C#CCCCCCC#Cc1ccccc1C#Cc1ccccc1OC` ; TGI = > 100 µM

Form: molecule = `Cc1c(C)[n+](=O)c(C)c(C)n1[O-]` ; TGI = > 100 µM

Form: molecule = CCOC(=O)C1SC(=Nc2ccc(Cl)c(Cl)c2)N=C1C (centres undefined) ; TGI = > 100 µM

Form: molecule = `CCN1c2ccccc2C(Cl)(c2ccc(N(C)C)cc2)c2ccccc21` ; TGI = 19.3 µM

Form: molecule = COc1ccc(Cl)cc1NC(=O)C(Br)C(Br)C(=O)O (centres undefined) ; TGI = 16.8 µM

Form: molecule = `Oc1ccc(SCc2cc(O)c(O)c(O)c2)cc1` ; TGI = > 100 µM

Form: molecule = O=C(C(=O)N1CC2C=CC1CC2)c1c[nH]c2ccccc12 (centres undefined) ; TGI = > 100 µM

* * *

System: A498 renal
assay remarks: NCI tumour cell line growth inhibition, 48 h
quantity measured: TGI

- compound: "C(=C\\c1ccccc1)/C=N/c1nc2cc3sc(/N=C/C=C/c4ccccc4)nc3cc2s1"
  quantity measured: "TGI"
  observed result: "> 100 µM"
- compound: "c1ccc(-n2nnnc2-c2cccc3ccccc23)cc1"
  quantity measured: "TGI"
  observed result: "> 55.3 µM"
- compound: "COc1ccc(-c2c(N)n(-c3cccc(C(=O)O)c3)c(=O)c3cc([N+](=O)[O-])ccc23)cc1"
  quantity measured: "TGI"
  observed result: "> 100 µM"
- compound: "COc1cccc2c1C(=O)c1c(O)c3c(c(O)c1C2=O)C[C@@](O)(C(=O)CO)C[C@@H]3OC1C[C@H](N)[C@H](O)[C@H](C)O1 (stereo partly drawn)"
  quantity measured: "TGI"
  observed result: "0.146 µM"

Form: compound = `CCOC(=O)C(=Cc1ccc(C(=O)OC)cc1)C(=O)OCC` ; TGI = 26 µM

Form: compound = `C=CC(=O)N[C@H]1CCOC[C@H]1Nc1ncc2cc(-c3c(Cl)c(OC)cc(OC)c3Cl)ccc2n1` ; TGI = 33.7 µM

Form: compound = `NC(=S)Nc1[nH]c(=S)nc2c1SC1=N/C(=C\c3ccco3)C(=O)N12` ; TGI = > 100 µM

Form: compound = `O=C(N/N=C/c1ccc([N+](=O)[O-])cc1)c1ccc2nc(-c3ccc(Cl)cc3)[nH]c2c1` ; TGI = 7.75 µM

* * *

Test system: SW-620 colon
assay remarks: NCI tumour cell line growth inhibition, 48 h
Mark true (1) for reported TGI of 50 µM or greater; mark false (0) for anything smaller.

- compound: "c1ccc(-n2nnnc2-c2cccc3ccccc23)cc1"
  system: "SW-620 colon"
  assigned label: "true (1)"
- compound: "Cc1ccc(SC2=CC(=O)c3nc4ccccc4c4ccnc2c34)cc1"
  system: "SW-620 colon"
  assigned label: "false (0)"
- compound: "NCCNc1cccc2ccccc12"
  system: "SW-620 colon"
  assigned label: "true (1)"
- compound: "C=CCC(N[C@H](CO)c1ccccc1)c1cn(C(=O)OCC)c2ccccc12 (stereo not given in full)"
  system: "SW-620 colon"
  assigned label: "true (1)"
- compound: "CC(=O)OC1CC2(O)C3CCC4CC(O)CCC4(C)C3CCC2(C)C1C1=CC(=O)OC1 (stereo not given)"
  system: "SW-620 colon"
  assigned label: "false (0)"
- compound: "NC(N)=NNC(=O)CCCCCCCC(=O)NN=C(N)N"
  system: "SW-620 colon"
  assigned label: "false (0)"
- compound: "Cc1cccc(C2=NC(C)(C)C(C)(C)N=C2c2cccc(C)n2)n1"
  system: "SW-620 colon"
  assigned label: "true (1)"
- compound: "O=C(Cc1cccc(OC(F)(F)F)c1)Nc1ccc(CCCCc2nnc(NC(=O)Cc3ccccn3)s2)nn1"
  system: "SW-620 colon"
  assigned label: "true (1)"

Consider the additional compound presented here.
Confirm if TGI reported for the compound `C#CC(F)(F)[C@]1(O)CC[C@H]2[C@@H]3CCC4=CC(=O)CCC4=C3[C@@H](c3ccc(C(C)=O)cc3)C[C@@]21C` is 50 µM or above.
true (1)

* * *

System: NCI-H522 lung
assay remarks: NCI tumour cell line growth inhibition, 48 h
quantity measured: GI50

Previously resolved entries follow.
- compound: "Cc1ccc(-c2cc(C3=CC(=O)C=CC3=O)n(-c3ccc(S(N)(=O)=O)cc3)n2)cc1"
  system: "NCI-H522 lung"
  GI50: "59.9 µM"
- compound: "O=C(Cc1cccc(OC(F)(F)F)c1)Nc1ccc(CCCCc2nnc(NC(=O)Cc3ccccn3)s2)nn1"
  system: "NCI-H522 lung"
  GI50: "12.2 µM"
- compound: "N#CC1=C(N)NC(=O)NC12Nc1ccccc1S2 (stereo not given)"
  system: "NCI-H522 lung"
  GI50: "28.2 µM"
- compound: "O=C(O)c1ccc(N/C=C2\\C(=O)c3ccccc3OC2O)cc1O (stereo not given)"
  system: "NCI-H522 lung"
  GI50: "28 µg/mL"

Alright, here's another compound for you.
Form: compound = Cc1ccc2c(O)c(O)cc(NC(C)CCCN)c2n1 (stereo not given) ; GI50 = 3.15 µM

* * *

Tested on: SF-539 CNS
assay remarks: NCI tumour cell line growth inhibition, 48 h
quantity measured: TGI

Previously resolved entries follow.
- molecule: "c1ccc2c(c1)[nH]c1cnc3c4cccnc4[nH]c3c12"
  TGI: "44.7 µM"
- molecule: "O=C1NC2(CCCCC2)C2CCCCCC12 (stereo unspecified)"
  TGI: "> 100 µM"
- molecule: "Oc1[nH]c2ccccc2c1N=Nc1nc(-c2ccc(Cl)c(Cl)c2)cs1"
  TGI: "> 100 µM"
- molecule: "NC1=NC(c2ccc(Cl)cc2)C2=C(N1)/C(=C/c1ccc(Cl)cc1)CCC2 (stereo unspecified)"
  TGI: "> 78 µM"
- molecule: "c1ccc(-n2nnnc2-c2cccc3ccccc23)cc1"
  TGI: "3.43 µM"

Alright, here's another molecule for you.
Form: molecule = `Cc1cc(=O)oc2cc(OCc3c(F)cccc3Cl)ccc12` ; TGI = 48.7 µM
